Reported AUC(0-t) values for a set of compounds
Experiment: Pharmacokinetics after intravenous or oral administration of 10 mg/kg EZE to control and CCl4-induced rats
Type: in vivo
Conditions: Sprague-Dawley, rat, plasma, iv, 10 mg/kg, i.v. 10 mg/kg EZE, control rats
Procedure: Animals were fasted for 12 h with free access to water before the experiments. […] WinNonlin version 6.1 (Pharsight Corp., Cary, NC, USA) was used to calculate the pharmacokinetic parameters in a non-compartmental model. Statistical comparisons between the two groups were evaluated using a Student’s two-tailed unpaired t-test or the nonparametric Mann–Whitney test in GraphPad Prism (version 8.0, GraphPad Software Inc, SanDiego, CA, USA). […]

| COMPOUND | AUC(0-t) / ng·h/mL |
| --- | --- |
| O=C1[C@H](CC[C@H](O)c2ccc(F)cc2)[C@@H](c2ccc(O)cc2)N1c1ccc(F)cc1 [EZE, reference compound] | 2180 |
| O=C(O)[C@H]1O[C@@H](Oc2ccc([C@@H]3[C@@H](CC[C@H](O)c4ccc(F)cc4)C(=O)N3c3ccc(F)cc3)cc2)[C@H](O)[C@@H](O)[C@@H]1O [EZE-Ph, ezetimibe phenoxy β-D-glucuronide] | 2470 |
| O=C(O)[C@H]1O[C@@H](O[C@@H](CC[C@H]2C(=O)N(c3ccc(F)cc3)[C@@H]2c2ccc(O)cc2)c2ccc(F)cc2)[C@H](O)[C@@H](O)[C@@H]1O [EZE-Hy, ezetimibe hydroxy β-D-glucuronide] | 992 |
